We begin with a simple list: items and their reported IC50.
# experimental.target: XIAP-BIR3 (Homo sapiens (Human), UniProt P98170)
# Sequence (P98170 241-356): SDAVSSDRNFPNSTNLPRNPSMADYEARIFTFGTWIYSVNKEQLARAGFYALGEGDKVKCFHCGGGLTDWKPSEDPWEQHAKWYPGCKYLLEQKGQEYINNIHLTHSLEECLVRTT
# assay.summary: BIR binding assay (FRET competition), XIAP BIR3

- molecule: "C[C@@H]1CN(CC(=O)N2CC(C)(C)c3[nH]c(=O)c(Cc4ccc(F)cc4)cc32)[C@@H](CN2CCN(Cc3cn(CCC(=O)N4CCN(C[C@H]5CN[C@H](C)CN5CC(=O)N5CC(C)(C)c6[nH]c(=O)c(Cc7ccc(F)cc7)cc65)[C@H](C)C4)nn3)C[C@H]2C)CN1 [Compound 156]"
  experimental.target: "XIAP-BIR3 (Homo sapiens (Human), UniProt P98170)"
  IC50: "15.8 to 31.6 nM"
- molecule: "C[C@@H]1CN(CC(=O)N2CC(C)(C)c3[nH]c(=O)c(Cc4ccc(F)cc4)cc32)[C@@H](CN2CCO[C@H](COc3cc(F)cc(OC[C@@H]4CN(C[C@H]5CN[C@H](C)CN5CC(=O)N5CC(C)(C)c6[nH]c(=O)c(Cc7ccc(F)cc7)cc65)CCO4)c3)C2)CN1 [Example 73]"
  experimental.target: "XIAP-BIR3 (Homo sapiens (Human), UniProt P98170)"
  IC50: "15.8 to 31.6 nM"
- molecule: "C[C@@H]1CN(CC(=O)N2CC(C)(C)c3[nH]c(=O)c(Cc4ccc(F)cc4)cc32)[C@@H](CN2CCO[C@H](C(=O)NCC3CCN(C(=O)[C@@H]4CN(C[C@H]5CN[C@H](C)CN5CC(=O)N5CC(C)(C)c6[nH]c(=O)c(Cc7ccc(F)cc7)cc65)CCO4)CC3)C2)CN1 [Compound 133]"
  experimental.target: "XIAP-BIR3 (Homo sapiens (Human), UniProt P98170)"
  IC50: "15.8 to 31.6 nM"
- molecule: "C[C@@H]1CN(CC(=O)N2CC(C)(C)c3[nH]c(=O)c(Cc4ccc(F)cc4)cc32)[C@@H](CN2CCO[C@H](C(=O)NCCCCNC(=O)[C@@H]3CN(C[C@H]4CN[C@H](C)CN4CC(=O)N4CC(C)(C)c5[nH]c(=O)c(Cc6ccc(F)cc6)cc54)CCO3)C2)CN1 [Example 126]"
  experimental.target: "XIAP-BIR3 (Homo sapiens (Human), UniProt P98170)"
  IC50: "7.94 to 15.8 nM"
- molecule: "C[C@@H]1CN(CC(=O)N2CC(C)(C)c3[nH]c(=O)c(Cc4ccc(F)cc4)cc32)[C@@H](CN2CCO[C@H](COCc3cccc(COC[C@@H]4CN(C[C@H]5CN[C@H](C)CN5CC(=O)N5CC(C)(C)c6[nH]c(=O)c(Cc7ccc(F)cc7)cc65)CCO4)c3)C2)CN1 [Example 80]"
  experimental.target: "XIAP-BIR3 (Homo sapiens (Human), UniProt P98170)"
  IC50: "1.38 to 7.94 nM"
- molecule: "C[C@@H]1CN(CC(=O)N2CC(C)(C)c3[nH]c(=O)c(Cc4ccc(F)cc4)cc32)[C@@H](CN2CCO[C@H](COc3ccc(Cl)c(OC[C@@H]4CN(C[C@H]5CN[C@H](C)CN5CC(=O)N5CC(C)(C)c6[nH]c(=O)c(Cc7ccc(F)cc7)cc65)CCO4)c3)C2)CN1 [Example 89]"
  experimental.target: "XIAP-BIR3 (Homo sapiens (Human), UniProt P98170)"
  IC50: "15.8 to 31.6 nM"
